Taken from ChEMBL document CHEMBL4261493.

Tested on: HepG2
measurement-notes: Antiproliferative activity against human HepG2 cells after 48 hrs by MTT assay
Assay type: functional, cell-based
experimental-context: HepG2, 48 h
measurement-label: IC50

## Input Return reported IC50; argument: CCCCN(Cc1ccc(C(=O)NO)cc1)C(=O)c1cc2c(cn1)[nH]c1ccccc12
## Output > 12.5 µM

## Input # input compound: CCN(Cc1ccc(C(=O)NO)cc1)C(=O)c1cc2c([nH]c3ccccc32)c(-c2ccc(OC)cc2)n1 ; wanted: its IC50
## Output 8.34 µM

## Input Report IC50 for Cc1nc(C(=O)N(C)Cc2ccc(C(=O)NO)cc2)cc2c1[nH]c1ccccc12 please.
## Output > 12.5 µM

## Input Requested read-out: IC50. Entry: CCCCN(Cc1ccc(C(=O)NO)cc1)C(=O)c1cc2c([nH]c3ccccc32)c(-c2cccc(OC)c2)n1
## Output 5.16 µM

## Input Quick one: IC50 for CCN(Cc1ccc(C(=O)NO)cc1)C(=O)c1cc2c([nH]c3ccccc32)c(C)n1 ?
## Output > 12.5 µM

## Input Would you mind telling me what IC50 value was observed for CN(Cc1ccc(C(=O)NO)cc1)C(=O)c1cc2c(cn1)[nH]c1ccccc12 ?
## Output > 12.5 µM

## Input Item under review: CCN(Cc1ccc(C(=O)NO)cc1)C(=O)c1cc2c(cn1)[nH]c1ccccc12 . Reported IC50?
## Output > 12.5 µM

## Input So what does the record say about IC50 for CCCCN(Cc1ccc(C(=O)NO)cc1)C(=O)c1cc2c([nH]c3ccccc32)c(-c2ccc(OC)cc2)n1 ?
## Output 3.37 µM

---

measurement-notes: Half life in rat liver microsomes at 5 uM in presence of NADPH by LC-MS analysis
measurement-label: half-life at 5 µM (min)
Provide the reading as a plain figure in min.

## Input half-life at 5 µM for O=C(CCCCCCC(=O)Nc1ccccc1)NO ?
## Output 44

---

Tested on: HCT-116
measurement-notes: Antiproliferative activity against human HCT116 cells after 48 hrs by MTT assay
Format: functional, cell-based
experimental-context: HCT-116, 48 h
Please respond with reported IC50 for every item in the list.
Give just the numeric value; µM need not be written.

## Input Give its IC50 value. Item: CCCCN(Cc1ccc(C(=O)NO)cc1)C(=O)c1cc2c([nH]c3ccccc32)c(-c2cccc(OC)c2)n1
## Output 4.32

## Input # get_value(readout='IC50', item= CCCN(Cc1ccc(C(=O)NO)cc1)C(=O)c1cc2c([nH]c3ccccc32)c(C)n1 )
## Output 10.5

## Input # lookup: IC50 of COc1ccc(-c2nc(C(=O)N(C)Cc3ccc(C(=O)NO)cc3)cc3c2[nH]c2ccccc23)cc1
## Output 9.76

## Input Need IC50, item CCCN(Cc1ccc(C(=O)NO)cc1)C(=O)c1cc2c([nH]c3ccccc32)c(-c2cccc(OC)c2)n1
## Output 2.96

---

Tested on: HepG2
measurement-notes: Antiproliferative activity against human HepG2 cells after 48 hrs by MTT assay
Type: functional, cell-based
experimental-context: HepG2, 48 h
measurement-label: pIC50
Conceptually, pIC50 converts a concentration in mol/L into minus its log10.

## Input Recorded pIC50 for CCCN(Cc1ccc(C(=O)NO)cc1)C(=O)c1cc2c([nH]c3ccccc32)c(C)n1 , please?
## Output 5.01

## Input Field request: pIC50 | item: COc1ccc(-c2nc(C(=O)N(C)Cc3ccc(C(=O)NO)cc3)cc3c2[nH]c2ccccc23)cc1
## Output 4.98

## Input Give its pIC50 value. Item: CCCN(Cc1ccc(C(=O)NO)cc1)C(=O)c1cc2c([nH]c3ccccc32)c(-c2cccc(OC)c2)n1
## Output 5.44

## Input Return reported pIC50; argument: CCCCN(Cc1ccc(C(=O)NO)cc1)C(=O)c1cc2c([nH]c3ccccc32)c(C)n1
## Output 4.93
